Values from patent US20030199098A1

Test: clinical
Conditions: male, human, in vivo
Source text: FIG. 3 ethanol concurrency test (simultaneously performed on the same human subject during a single experimental session) in a graphical representation The following TABLE 1 of results describes the FIG. 3 curves: The INTOXIMETER EC/IR 3000, which was used for the data presented in the TABLE 1, was made by Intoximeter, Inc. of St. Louis, Mo. The transcutaneous ethanol sensors (TES #33, #39) were made by Giner Inc. of Waltham, Mass.
READOUT_KIND: half-life (h)
Write the value in h as a bare number.

The value of half-life measured for the compound CCO turned out to be 1.48
